# maps each entry to its melting point

Solved cases (3 shown):
* Cc1ccc(COC(=O)C2=CCC3(C(=O)N4C(C(=O)OC(c5ccccc5)c5ccccc5)C(C)(C)SC43)C2C(=O)c2ccc(Br)cc2)cc1 (centres unmarked) [Compound 14h] | 74.9 to 76.9 °C
* CC1(C)SC2N(C(=O)C23CC=C(C(=O)OCc2ccccc2)C3C(=O)c2ccco2)C1C(=O)OC(c1ccccc1)c1ccccc1 (centres unmarked) [Compound 12i] | 76.5 to 78.5 °C
* COc1ccc(COC(=O)C2=CCC3(C(=O)N4C(C(=O)OC(c5ccccc5)c5ccccc5)C(C)(C)SC43)C2C(=O)c2ccccc2)cc1 (centres unmarked) | 65.3 to 67.4 °C

q: Please report melting point for the following molecule: CC1(C)SC2N(C(=O)C23CC=C(C(=O)OCc2ccccc2)C3C(=O)c2ccc3ccccc3c2)C1C(=O)OC(c1ccccc1)c1ccccc1 (centres unmarked) [Compound 12h]
a: 81.5 to 83.5 °C

q: Please report melting point for the following molecule: COc1ccc(COC(=O)C2=CCC3(C(=O)N4C(C(=O)OC(c5ccccc5)c5ccccc5)C(C)(C)SC43)C2C(=O)c2ccc(F)cc2)cc1 (centres unmarked) [Compound 14a]
a: 72.9 to 74.9 °C

q: Please report melting point for the following molecule: CC1(C)SC2N(C(=O)C23CC=C(C(=O)OCC=Cc2ccccc2)C3C(=O)c2ccc(F)cc2)C1C(=O)OC(c1ccccc1)c1ccccc1 (centres unmarked) [Compound 14c]
a: 76.5 to 78.5 °C
